Test system: PC-3 prostate
assay.procedure: NCI tumour cell line growth inhibition, 48 h
Where a SMILES comes first, the peptide text is derived from it.
Reported TGI values are given for each entry in this list.
assay.endpoint: TGI

compound=Cc1cn([C@@H]2C[C@](C)(CO)N(C)O2)c(=O)[nH]c1=O assay_endpoint=TGI result="> 100 µM"
compound=Cc1ccc2c(c1)nc(C(=O)c1ccco1)c(C(F)(F)F)[n+]2[O-] assay_endpoint=TGI result="> 100 µM"
compound=OC1(C(O)(c2ccc(-c3ccccc3)cc2)c2ccc(-c3ccccc3)cc2)CCCCC1 assay_endpoint=TGI result="> 100 µM"
compound=O=C(O)c1cc2ccccc2c(O)c1O assay_endpoint=TGI result="37 µM"
compound=O=C(c1ccccc1)c1ccc2nc(-c3c(Cl)c(Cl)c(Cl)c(Cl)c3C(=O)Nc3ccco3)[nH]c2c1 assay_endpoint=TGI result="> 100 µM"
compound=CCC(=O)Nc1ccc(N2C(=O)/C(=C/c3ccc(O)c(OC)c3)N=C2c2ccccc2)cc1 assay_endpoint=TGI result="60.8 µM"
compound="CCC(C)C(NC(=O)C1CCCN1)C(=O)NC(C(=O)NCC(=O)NC(CC(N)=O)C(=O)NC(CC(C)C)C(=O)NC(CC(C)C)C(=O)NC(CCCCN)C(N)=O)C(C)C (configuration not stated) (H-PIVGNLLK-NH2; configuration not given here)" assay_endpoint=TGI result="> 75 µM"
compound=CC1=C(/C=C/C(C)=C\C=C\C(C)=C\C(=O)Nc2ccc3c(c2)OCO3)C(C)(C)CCC1 assay_endpoint=TGI result="> 100 µM"
compound=O=C1/C(=C/c2cccs2)N=C(c2ccccc2)N1c1nc2ccccc2s1 assay_endpoint=TGI result="> 100 µM"
compound=O=C(O)C(=Cc1ccnc2ccccc12)C(=O)O assay_endpoint=TGI result="> 100 µM"
compound="C/C=C\\C(CC(=O)NCCc1c[nH]c2ccccc12)CC(=O)OC (configuration not stated)" assay_endpoint=TGI result="> 100 µM"
compound="CC12CCC3C(CC=C4CC(O)CCC43C)C1C/C(=C\\N1CCCC1)C2=O (configuration not stated)" assay_endpoint=TGI result="> 100 µM"
